- conditions: in n-butanol, 298.15 K
assay_metric: solubility (mole fraction)
Simply state the number, no unit and no words.

Quick one: solubility (mole fraction) of "O=C(O)CNC(=O)c1ccccc1" ?
0.00776

* * *

- conditions: in n-propanol, 318.15 K
assay_metric: solubility (mole fraction)

Quick one: solubility (mole fraction) of "O=C(O)CNC(=O)c1ccccc1" ?
0.0174

* * *

- conditions: in n-butanol, 328.15 K
assay_metric: solubility (mole fraction)
Simply state the number, no unit and no words.

Quick one: solubility (mole fraction) of "O=C(O)CNC(=O)c1ccccc1" ?
0.0205

* * *

- conditions: in 1,4-dioxane, 313.15 K
assay_metric: solubility (mole fraction)

Quick one: solubility (mole fraction) of "O=C(O)CNC(=O)c1ccccc1" ?
0.014

* * *

- conditions: in 1,4-dioxane, 328.15 K
assay_metric: solubility (mole fraction)
Simply state the number, no unit and no words.

Quick one: solubility (mole fraction) of "O=C(O)CNC(=O)c1ccccc1" ?
0.0209

* * *

- conditions: in DMF, 303.15 K
assay_metric: solubility (mole fraction)
Simply state the number, no unit and no words.

Quick one: solubility (mole fraction) of "O=C(O)CNC(=O)c1ccccc1" ?
0.213

* * *

- conditions: in THF, 308.15 K
assay_metric: solubility (mole fraction)
Simply state the number, no unit and no words.

Quick one: solubility (mole fraction) of "O=C(O)CNC(=O)c1ccccc1" ?
0.018

* * *

- conditions: in 1,4-dioxane, 308.15 K
assay_metric: solubility (mole fraction)
Simply state the number, no unit and no words.

Quick one: solubility (mole fraction) of "O=C(O)CNC(=O)c1ccccc1" ?
0.0109

* * *

- conditions: in 1,4-dioxane, 303.15 K
assay_metric: solubility (mole fraction)
Simply state the number, no unit and no words.

Quick one: solubility (mole fraction) of "O=C(O)CNC(=O)c1ccccc1" ?
0.0084

* * *

- conditions: in ethanol, 298.15 K
assay_metric: solubility (mole fraction)
Simply state the number, no unit and no words.

Quick one: solubility (mole fraction) of "O=C(O)CNC(=O)c1ccccc1" ?
0.0148

* * *

- conditions: in n-butanol, 323.15 K
assay_metric: solubility (mole fraction)

Quick one: solubility (mole fraction) of "O=C(O)CNC(=O)c1ccccc1" ?
0.0178

* * *

- conditions: in 1,4-dioxane, 323.15 K
assay_metric: solubility (mole fraction)
Simply state the number, no unit and no words.

Quick one: solubility (mole fraction) of "O=C(O)CNC(=O)c1ccccc1" ?
0.0182

* * *

- conditions: in n-propanol, 313.15 K
assay_metric: solubility (mole fraction)
Simply state the number, no unit and no words.

Quick one: solubility (mole fraction) of "O=C(O)CNC(=O)c1ccccc1" ?
0.0151

* * *

- conditions: in ethanol, 313.15 K
assay_metric: solubility (mole fraction)

Quick one: solubility (mole fraction) of "O=C(O)CNC(=O)c1ccccc1" ?
0.024

* * *

- conditions: in chloroform, 298.15 K
assay_metric: solubility (mole fraction)

Quick one: solubility (mole fraction) of "O=C(O)CNC(=O)c1ccccc1" ?
0.00021

* * *

- conditions: in ethanol, 303.15 K
assay_metric: solubility (mole fraction)
Simply state the number, no unit and no words.

Quick one: solubility (mole fraction) of "O=C(O)CNC(=O)c1ccccc1" ?
0.0162

* * *

- conditions: in THF, 313.15 K
assay_metric: solubility (mole fraction)
Simply state the number, no unit and no words.

Quick one: solubility (mole fraction) of "O=C(O)CNC(=O)c1ccccc1" ?
0.0209
